test method notes: MTT assay, HEL299 fibroblast
Type: cell-based
condition info: human
measurement label: viability (%)
One number for each entry, in %.

Lookup: Consider the compound Cc1cc(C)cc(Sc2ccc3c(=O)c4ccccc4sc3c2Cl)c1 and give its measured viability.
Found: 104

Each compound below has a reported value. Please supply its viability.
1. CCCSc1ccc2c(=O)c3ccccc3sc2c1Cl
2. O=c1c2ccccc2sc2c(Cl)c(SCc3ccc(Cl)cc3)ccc12
3. Cc1ccc(Sc2ccc3c(=O)c4ccccc4sc3c2Cl)cc1C
4. COc1ccccc1Sc1ccc2c(=O)c3ccccc3sc2c1Cl

Found:
[88.9, 58.7, 112, 73]

====

test method notes: MTT assay, HEL299 fibroblast
Type: cell-based
condition info: human, HEL299, normal fibroblast; read-out: cell viabilities of HEL299 cell lines (MTT assay)
Excerpt: Please refer to FIG. 4C, various cell viabilities of the HEL299 cell lines can be obtained through the MTT assay while the compounds No. 1˜30 are used to treat HEL299 cell lines, wherein HEL299 cell lines are fibroblast.
measurement label: viability (%)
One number for each entry, in %.

Lookup: Consider the compound O=c1c2ccccc2sc2c(Cl)c(SCc3ccccc3)ccc12 and give its measured viability.
Found: 82.5

Data provenance is patent US8410161B2.
